- protocol.summary: Area under plasma-time concentration curve when administered at 1 mg/kg dose
- Type: ADME, organism-based
- Set-up: dose 1 mg/kg
- condition.summary: rat
reported.endpoint: AUC (µM·h)
Report only the number, with the unit µM·h understood.

Previously resolved entries follow.
smi: Cc1nc(COc2ccc(C(=O)Nc3cc(NC(=O)c4cc(F)cc(N5CCOCC5)c4)ccc3C)cc2)cs1
reported.endpoint: AUC
units.of.measure: µM·h
observed.result: 0.73
--
smi: Cc1ccc(NC(=O)c2cccc(N3CCOCC3)c2)cc1NC(=O)c1ccc(OCc2ccccn2)cc1
reported.endpoint: AUC
units.of.measure: µM·h
observed.result: 1.38
--
smi: Cc1ccc(NC(=O)c2cc(N3CCOCC3)cc(C(F)(F)F)c2)cc1NC(=O)c1ccc(OCc2ccccn2)cc1
reported.endpoint: AUC
units.of.measure: µM·h
observed.result: 0.04

Query compound follows.
Consider Cc1ccc(NC(=O)c2cc(F)cc(N3CCCC3)c2)cc1NC(=O)c1ccc(OCc2ccccn2)cc1 . Its measured AUC is 0.07

* * *

- protocol.summary: Log D value at pH 7.4
- Assay type: physicochemical
- condition.summary: buffer
reported.endpoint: logD
Quick one: just the number, no unit, thanks!

Consider Cc1ccc(NC(=O)c2cccc(N(C)C)c2)cc1NC(=O)c1ccc(O)cc1 . Its measured logD is 2.7

* * *

- protocol.summary: Volume distribution after iv administration of 1 mg/kg
- Assay type: ADME, organism-based
- Design: dose 1 mg/kg, route intravenous
- condition.summary: rat, in vivo, read-out: Distribution
reported.endpoint: Vd (L/kg)
Report only the number, with the unit L/kg understood.

Consider Cc1ccc(NC(=O)c2ccnc(N3CCOCC3)c2)cc1NC(=O)c1ccc(OCc2ccccn2)cc1 . Its measured Vd is 1.6

* * *

- system.name: Mitogen-activated protein kinase 14 (Homo sapiens)
- Sequence (Q16539 whole entry): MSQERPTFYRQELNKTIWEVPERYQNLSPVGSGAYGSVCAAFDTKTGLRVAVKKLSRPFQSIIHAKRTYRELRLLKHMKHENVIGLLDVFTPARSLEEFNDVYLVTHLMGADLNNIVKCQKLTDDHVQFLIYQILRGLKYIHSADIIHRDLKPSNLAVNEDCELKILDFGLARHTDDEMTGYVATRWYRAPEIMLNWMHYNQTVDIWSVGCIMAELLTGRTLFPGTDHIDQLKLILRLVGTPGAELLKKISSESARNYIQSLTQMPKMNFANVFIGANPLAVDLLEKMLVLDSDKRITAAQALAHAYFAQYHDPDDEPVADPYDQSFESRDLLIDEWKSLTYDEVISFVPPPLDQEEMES
reported.endpoint: pIC50
The scale used: pIC50 is minus the common logarithm of the concentration in molar units.

Previously resolved entries follow.
smi: COc1cc(C(=O)Nc2cc(NC(=O)c3cccc(N(C)C)c3)ccc2C)cc(OC)c1OC
pIC50: 6.64
//
smi: Cc1ccc(NC(=O)c2cc(F)cc(N3CCOCC3)c2)cc1NC(=O)c1ccc(OCc2ccncc2)cc1
pIC50: 8.00
//
smi: Cc1ccc(NC(=O)c2cc(N3CCOCC3)cc(C(F)(F)F)c2)cc1NC(=O)c1ccc(OCc2ccccn2)cc1
pIC50: 7.70
//
smi: CCOc1ccc(C(=O)Nc2cc(NC(=O)c3cccc(N(C)C)c3)ccc2C)cc1
pIC50: 7.22

// pIC50 (Mitogen-activated protein kinase 14 (Homo sapiens)) for Cc1ccc(NC(=O)c2cccc(N3CCOCC3)c2)cc1NC(=O)c1ccc(OCc2ccccc2)cc1 = 7.52

* * *

Recorded measurements of inhibition in vivo at 10 mg/kg, one per entry
- Organism: Mus musculus
- protocol.summary: animal or person
- Format: functional

Previously resolved entries follow.
molecule: Cc1ccc(NC(=O)c2cc(F)cc(N3CCCC3)c2)cc1NC(=O)c1ccc(OCc2ccccn2)cc1
inhibition in vivo at 10 mg/kg: 3%

molecule: Cc1ccc(NC(=O)c2cccc(N3CCOCC3)c2)cc1NC(=O)c1ccc(OCc2cscn2)cc1
inhibition in vivo at 10 mg/kg: 44%

molecule: C[S+]([O-])c1ccc(-c2nc(-c3ccc(F)cc3)c(-c3ccncc3)[nH]2)cc1 (centres undefined)
inhibition in vivo at 10 mg/kg: 47%

Query molecule follows.
Consider Cc1ccc(NC(=O)c2cc(F)cc(N3CCOCC3)c2)cc1NC(=O)c1ccc(OCc2cscn2)cc1 . Its measured inhibition in vivo at 10 mg/kg is 37%

* * *

- protocol.summary: cells
- condition.summary: Homo sapiens
Recorded measurements of IC50, one per entry
Report only the number, with the unit µM understood.

Previously resolved entries follow.
smi: CCOc1ccc(C(=O)Nc2cc(NC(=O)c3cccc(N(C)C)c3)ccc2C)cc1OCC
IC50 / µM: 4.5
--
smi: COc1ccc(C(=O)Nc2cc(NC(=O)c3cccc(N(C)C)c3)ccc2Cl)cc1OC
IC50 / µM: 6.4
--
smi: CCOCCOc1ccc(C(=O)Nc2cc(NC(=O)c3cccc(N(C)C)c3)ccc2C)cc1
IC50 / µM: 9.5
--
smi: COc1ccc(C(=O)Nc2cc(NC(=O)c3cccc(N(C)C)c3)ccc2C)cc1OC
IC50 / µM: 6.4
--
smi: COc1ccc(C(=O)Nc2cc(NC(=O)c3cccc(N(C)C)c3)ccc2Br)cc1OC
IC50 / µM: 9.5
--
smi: COCCOc1ccc(C(=O)Nc2cc(NC(=O)c3cccc(N(C)C)c3)ccc2C)cc1
IC50 / µM: 3.4

Query compound follows.
Consider COc1cc(C(=O)Nc2cc(NC(=O)c3cccc(N(C)C)c3)ccc2C)cc(OC)c1OC . Its measured IC50 is 3.9

* * *

- protocol.summary: cells
- condition.summary: Homo sapiens
Recorded measurements of IC50, one per entry
Report only the number, with the unit µM understood.

smi: CCOc1ccc(C(=O)Nc2cc(NC(=O)c3cccc(N(C)C)c3)ccc2C)cc1
units.of.measure: µM
IC50: 7

Query compound follows.
Consider COc1ccc(C(=O)Nc2cc(NC(=O)c3cccc(N(C)C)c3)ccc2F)cc1OC . Its measured IC50 is 22

* * *

Recorded measurements of IC50, one per entry
- Species: Homo sapiens
- protocol.summary: tissue or blood
Report only the number, with the unit µM understood.

Previously resolved entries follow.
smi: Cc1ccc(NC(=O)c2cccc(N3CCOCC3)c2)cc1NC(=O)c1ccc(OCc2ccncc2)cc1
observed.result: 3.3
--
smi: Cc1ccc(NC(=O)c2cc(F)cc(N3CCOCC3)c2)cc1NC(=O)c1ccc(OCc2ccccn2)cc1
observed.result: 11.2
--
smi: Cc1ccc(NC(=O)c2cc(N3CCOCC3)cc(C(F)(F)F)c2)cc1NC(=O)c1ccc(OCc2ccccn2)cc1
observed.result: 10.2
--
smi: Cc1ccc(NC(=O)c2cc(F)cc(N3CCOCC3)c2)cc1NC(=O)c1ccc(OCc2cscn2)cc1
observed.result: 2.5

Consider Cc1ccc(NC(=O)c2cc(F)cc(N3CCOCC3)c2)cc1NC(=O)c1ccc(OCc2ccncc2)cc1 . Its measured IC50 is 3.4

Consider Cc1nc(COc2ccc(C(=O)Nc3cc(NC(=O)c4cccc(N5CCOCC5)c4)ccc3C)cc2)cs1 . Its measured IC50 is 14.6

Consider Cc1nc(COc2ccc(C(=O)Nc3cc(NC(=O)c4cc(F)cc(N5CCOCC5)c4)ccc3C)cc2)cs1 . Its measured IC50 is 2.8

Consider Cc1ccc(NC(=O)c2ccnc(N3CCOCC3)c2)cc1NC(=O)c1ccc(OCc2ccccn2)cc1 . Its measured IC50 is 2.8

Consider Cc1ccc(NC(=O)c2cccc(N3CCOCC3)c2)cc1NC(=O)c1ccc(OCc2ccccc2)cc1 . Its measured IC50 is 40

Consider Cc1ccc(NC(=O)c2cccc(N3CCOCC3)c2)cc1NC(=O)c1ccc(OCc2cccnc2)cc1 . Its measured IC50 is 14.7

* * *

- protocol.summary: Solubility was determined
- Type: physicochemical
reported.endpoint: solubility (µM)
Report only the number, with the unit µM understood.

Consider Cc1ccc(NC(=O)c2cccc(N(C)C)c2)cc1NC(=O)c1ccc(O)cc1 . Its measured solubility is 10

* * *

- system.name: Mitogen-activated protein kinase 14 (Homo sapiens)
Output class 1 for records whose IC50 is lower than 200 nM, class 0 for records at or above 200 nM.

smi: COc1ccc(C(=O)Nc2cc(NC(=O)c3cccc(N(C)C)c3)ccc2C)c(OC)c1
system.name: Mitogen-activated protein kinase 14 (Homo sapiens)
group.label: class 1
--
smi: COc1ccc(C(=O)Nc2cc(NC(=O)c3cccc(N(C)C)c3)ccc2Br)cc1OC
system.name: Mitogen-activated protein kinase 14 (Homo sapiens)
group.label: class 0
--
smi: Cc1ccc(NC(=O)c2cc(F)cc(N3CCOCC3)c2)cc1NC(=O)c1ccc(OCc2cscn2)cc1
system.name: Mitogen-activated protein kinase 14 (Homo sapiens)
group.label: class 1

INPUT: I'd appreciate it if you could check whether COc1ccc(C(=O)Nc2ccc(C)c(NC(=O)c3cccc(N(C)C)c3)c2)cc1OC has IC50 smaller than 200 nM.
OUTPUT: class 0

INPUT: I'd appreciate it if you could check whether COCCOc1ccc(C(=O)Nc2cc(NC(=O)c3cccc(N(C)C)c3)ccc2C)cc1 has IC50 smaller than 200 nM.
OUTPUT: class 0

INPUT: I'd appreciate it if you could check whether COc1ccc(C(=O)Nc2cc(NC(=O)c3cccc(N(C)C)c3)ccc2Cl)cc1OC has IC50 smaller than 200 nM.
OUTPUT: class 0

INPUT: I'd appreciate it if you could check whether Cc1ccc(NC(=O)c2cccc(N3CCOCC3)c2)cc1NC(=O)c1ccc(OCc2cccnc2)cc1 has IC50 smaller than 200 nM.
OUTPUT: class 1

INPUT: I'd appreciate it if you could check whether CCOCCOc1ccc(C(=O)Nc2cc(NC(=O)c3cccc(N(C)C)c3)ccc2C)cc1 has IC50 smaller than 200 nM.
OUTPUT: class 0
